Collected IC50 values appear next to each entry.
# target under test: human thrombin (Homo sapiens, UniProt P00734)
# Construct: solution of human thrombin (SIGMA Co. Ltd.); purchased SIGMA Co. Ltd
# method summary: Determination of antagonistic activity to human thrombin
# Format: biochemical
# measurement parameters: substrate S-2238, pH 8.4, initial velocity, read-out: Antagonistic activity to thrombin (pIC50) (converted)
Where a name gives a salt, the structure may show the parent alone.
Please give a number only; it is taken to be in µM.

N=C(N)c1ccc(CC(=O)C(=O)O)c(OCCNC(=O)c2ccc3nc(N)sc3c2)c1 [Compound of Ex. 39, trifluoroacetate]
39.8
N=C(N)c1ccc(CC(=O)C(=O)O)c(OCCNC(=O)c2ccc3nc(N)ccc3c2)c1 [Compound of Ex. 2, bistrifluoroacetate]
31.6

Quick check: IC50 of N=C(N)c1ccc(-c2cccc(C(=O)N[C@H](CCC(=O)O)COc3cc(C(=N)N)ccc3CC(=O)C(=O)O)c2)cc1 [Compound of Ex. 13, bistrifluoroacetate] ?
7.94

====

# target under test: activated human blood coagulation factor VII (Homo sapiens, UniProt P08709)
# Construct: purchased Enzyme Research Laboratories Ltd. (FVIIa); American Diagnostica Laboratories Ltd. (tissue factor)
# Sequence (P08709 213-466 limits assumed): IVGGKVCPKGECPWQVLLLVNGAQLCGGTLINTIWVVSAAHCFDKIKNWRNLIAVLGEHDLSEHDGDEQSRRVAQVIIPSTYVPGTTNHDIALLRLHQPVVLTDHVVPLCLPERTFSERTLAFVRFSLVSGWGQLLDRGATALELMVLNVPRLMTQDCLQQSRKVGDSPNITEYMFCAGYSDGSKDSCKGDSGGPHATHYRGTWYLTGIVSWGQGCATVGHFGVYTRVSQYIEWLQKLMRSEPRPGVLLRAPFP
# Sequence (P08709 61-212 limits assumed): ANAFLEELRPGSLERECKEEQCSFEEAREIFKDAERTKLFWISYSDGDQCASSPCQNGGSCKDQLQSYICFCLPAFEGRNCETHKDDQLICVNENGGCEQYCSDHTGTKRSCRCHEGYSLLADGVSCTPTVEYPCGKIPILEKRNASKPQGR
# Sequence (P13726 33-295 partner): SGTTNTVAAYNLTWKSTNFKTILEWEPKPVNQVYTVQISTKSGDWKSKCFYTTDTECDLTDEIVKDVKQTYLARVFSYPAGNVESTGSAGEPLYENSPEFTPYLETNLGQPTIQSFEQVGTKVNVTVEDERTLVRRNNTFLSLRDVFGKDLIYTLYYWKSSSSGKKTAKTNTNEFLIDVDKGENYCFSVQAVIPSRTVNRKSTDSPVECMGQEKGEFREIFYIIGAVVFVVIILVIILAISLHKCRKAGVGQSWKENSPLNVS
# method summary: Determination of antagonistic activity to activated human blood coagulation factor VII
# Type: biochemical
# measurement parameters: FVIIa mixed with tissue factor, substrate S-2288, pH 7.4, initial velocity; read-out: Antagonistic activity to activated blood coagulation factor VII (pIC50 ) (converted)
Structures can show the parent of a compound that is named as a salt.
Collected IC50 values appear next to each entry.
Please give a number only; it is taken to be in nM.

Record excerpt, results attached:
N=C(N)c1ccc(CC(=O)C(=O)O)c(OCCNC(=O)c2ccc3nc(N)sc3c2)c1 [Compound of Ex. 39, trifluoroacetate]
20
N=C(N)c1ccc(-c2cccc(C(=O)N[C@H](CCC(=O)O)COc3cc(C(=N)N)ccc3CC(=O)C(=O)O)c2)cc1 [Compound of Ex. 13, bistrifluoroacetate]
100

// next entry
Quick check: IC50 of N=C(N)c1ccc(CC(=O)C(=O)O)c(OC[C@@H](CCC(=O)O)NC(=O)c2ccc3nc(N)sc3c2)c1 [Compound of Ex. 28, trifluoroacetate] ?
5.01

====

Collected IC50 values appear next to each entry.
# target under test: activated human blood coagulation factor VII (Homo sapiens, UniProt P08709)
# Construct: purchased Enzyme Research Laboratories Ltd. (FVIIa); American Diagnostica Laboratories Ltd. (tissue factor)
# method summary: Determination of antagonistic activity to activated human blood coagulation factor VII
# Type: biochemical
# measurement parameters: FVIIa mixed with tissue factor, substrate S-2288, pH 7.4, initial velocity; read-out: Antagonistic activity to activated blood coagulation factor VII (pIC50 ) (converted)
Where a name gives a salt, the structure may show the parent alone.
Please give a number only; it is taken to be in nM.

Record excerpt, results attached:
N=C(N)c1ccc(CC(=O)C(=O)O)c(OC[C@@H](CCC(=O)O)NC(=O)c2cc3c(cc2Br)CCO3)c1 [Compound of Ex. 45, trifluoroacetate]
100
Cc1nc2ccc(C(=O)N[C@H](CCC(=O)O)COc3cc(C(=N)N)ccc3CC(=O)C(=O)O)cc2[nH]1 [Compound of Ex. 4, bistrifluoroacetate]
200
N=C(N)Nc1ccc(C(=O)N[C@H](CCC(=O)O)COc2cc(C(=N)N)ccc2CC(=O)C(=O)O)cc1 [Compound of Ex. 23, bistrifluoroacetate]
251
COc1ccc(-c2ccccc2)cc1C(=O)N[C@H](CCC(=O)O)COc1cc(C(=N)N)ccc1CC(=O)C(=O)O [Compound of Ex. 27, trifluoroacetate]
50.1
N=C(N)c1ccc(CC(=O)C(=O)O)c(OC[C@@H](CCC(=O)O)NC(=O)c2ccc3nc(N)ccc3c2)c1 [Compound of Ex. 1, bistrifluoroacetate]
126

// next entry
Recorded IC50 for N=C(N)c1ccc(CC(=O)C(=O)O)c(OCCNC(=O)c2ccc3nc(N)ccc3c2)c1 [Compound of Ex. 2, bistrifluoroacetate] with activated human blood coagulation factor VII (Homo sapiens, UniProt P08709), please?
316
